- procedure-text: Solubility
- Type: physicochemical
- condition-parameters: organic solvent or mixture; DMSO; freeze dried, RP-HPLC purified P1; read-out: solubility in DMSO
recorded-metric: solubility (mM)
The reply should be a number in mM, with the unit left off.

Which value of solubility has been reported for CC[C@H](C)[C@H](NC(=O)[C@H](Cc1ncc[nH]1)NC(=O)c1cccc(C(N)=O)c1)C(=O)Nc1ccc(O)c(-c2nc3ccccc3s2)c1 [Compound P1] in the records? 10
